Reported IC50 values for the following compounds.
# Tested on: DU-145
# PROCEDURE DETAILS: Cell viability MTS assay
# Type: cell-based, human
# TEST PARAMETERS: Homo sapiens, DU-145, 72 hours with compound

Examples from the recorded data:
| COMPOUND | ASSAY SYSTEM | IC50 |
| --- | --- | --- |
| CN1C(=O)[C@H](c2cn(C)c3ccccc23)[C@H](c2cn3c4c(cccc24)CCC3)C1=O (racemic) [Example 61] | DU-145 | > 100 µM |
| O=C1NC(=O)C(c2cn3c4c(cccc24)CCC3)=C1c1cccc2ccccc12 [Example 19] | DU-145 | > 100 µM |

Let's switch to this compound now.
Looking up COc1ccc(OC)c([C@H]2C(=O)NC(=O)[C@H]2c2cn3c4c(cccc24)CCC3)c1 (racemic) [Example 53] , I see its IC50 listed as > 100 µM

###

Reported IC50 values for the following compounds.
# System: MDA-MB-231
# PROCEDURE DETAILS: Cell viability MTS assay
# Type: cell-based, human
# TEST PARAMETERS: Homo sapiens, MDA-MB-231, 72 hours with compound
# Description: Cell viability was determined by measuring the activity of dehydrogenase enzymes in metabolically active cells using a tetrazolium compound, MTS. The assay was performed as described in Promega Technical Bulletin No. 169 (CellTiter 96 Aqueous Non-Radioactive Cell Proliferation Assay). Thirteen human cancer cell lines were assayed (see, e.g., Table 1). […] SDS was added to a final concentration of 1.4% and absorbance at 490 nm was measured within two hours using a platereader. […]

| COMPOUND | READOUT VALUE |
| --- | --- |
| COc1ccc(OC)c(C2=C(c3cn4c5c(cccc35)CCC4)C(=O)NC2=O)c1 | > 100 µM |
| O=C1NC(=O)[C@@H](c2cn3c4c(cccc24)CCC3)[C@@H]1c1ccccc1F (racemic) | > 100 µM |
| O=C1NC(=O)C(n2ccc3ccccc32)=C1c1cn2c3c(cccc13)CCC2 | 59.4 µM |
| O=C1NC(=O)C(c2cn3c4c(cccc24)CCC3)=C1c1cccc(Cl)c1 | 43.6 µM |
| CN1C(=O)[C@H](c2cn(C)c3ccccc23)[C@H](c2cn3c4c(cccc24)CCC3)C1=O (racemic) | > 100 µM |

Looking up O=C1NC(=O)C(c2cn3c4c(cccc24)CCC3)=C1c1cccs1 , I see its IC50 listed as > 100 µM

Looking up O=C1NC(=O)[C@@H](c2cn3c4c(cccc24)CCC3)[C@@H]1c1ccc(O)cc1 (racemic) , I see its IC50 listed as > 100 µM

Looking up O=C1NC(=O)C(c2cn3c4c(cccc24)CCC3)=C1c1ccc2c(c1)OCO2 , I see its IC50 listed as > 100 µM

###

# Test system: MDA-MB-231
# PROCEDURE DETAILS: Cell viability MTS assay
# Type: cell-based, human
# TEST PARAMETERS: Homo sapiens, MDA-MB-231, 72 hours with compound
ASSAY ENDPOINT: IC50

Examples from the recorded data:
| COMPOUND | READOUT VALUE |
| --- | --- |
| O=C1NC(=O)C(c2cn3c4c(cccc24)CCC3)=C1c1ccccn1 | > 100 µM |
| COc1ccc(C2=C(c3cn4c5c(cccc35)CCC4)C(=O)NC2=O)cc1 | > 100 µM |

Let's switch to this compound now.
// returns IC50 for O=C1NC(=O)[C@@H](c2cn3c4c(cccc24)CN(C(=O)OCc2ccccc2)CC3)[C@@H]1c1c[nH]c2ccccc12 (racemic) with MDA-MB-231; value = > 100 µM
